# test_protocol: Solubility in water
# Type: physicochemical
assay_endpoint: solubility (µg/mL)
Express your answer in µg/mL, writing the number without its unit.

For the compound CCN(CC)CCNc1ccc(CNC=O)c2sc3ccc(OC)cc3c(=O)c12 , what solubility is on record? 100
